activity at 10 µM for assorted compounds
# System: PC-3
# Assay Name: NCI one-dose screen
# Assay type: cell-based
# Test Settings: Homo sapiens; PC-3, 10 µM; read-out: Growth Percent
Report as a plain number; the unit % is understood.

Here's what some known entries look like.
Inquiry: Given `O=C(/C=C/c1ccccc1)c1ccc(-n2cc(CN3CCN(c4cc5c(cc4F)c(=O)c(C(=O)O)cn5C4CC4)CC3)nn2)cc1` , respond with its activity at 10 µM.
Reply text: 83.9

Inquiry: Given `COc1cc(/C=C/C(=O)c2ccc(-n3cc(CN4CCN(c5cc6c(cc5F)c(=O)c(C(=O)O)cn6C5CC5)CC4)nn3)cc2)cc(OC)c1OC` , respond with its activity at 10 µM.
Reply text: 9.95

Inquiry: Given `CN(C)c1ccc(/C=C/C(=O)c2ccc(-n3cc(CN4CCN(c5cc6c(cc5F)c(=O)c(C(=O)O)cn6C5CC5)CC4)nn3)cc2)cc1` , respond with its activity at 10 µM.
Reply text: 89.6

***
Inquiry: Given `Cc1ccc(/C=C/C(=O)c2ccc(-n3cc(CN4CCN(c5cc6c(cc5F)c(=O)c(C(=O)O)cn6C5CC5)CC4)nn3)cc2)cc1` , respond with its activity at 10 µM.
Reply text: 82
